Source of measurements: patent EP0353777A2

Test system: platelet aggregation induced by PAF
protocol-details: Test 1: Inhibition of platelet aggregation induced by PAF
Assay type: cell-based
setup-conditions: Oryctolagus cuniculus; rabbit platelet rich plasma; aggregation induced by PAF (C₁₈) 16 nM final; Born nephelometric technique; read-out: IC₅₀
readout-name: IC50 (µM)

compound: CCCCCCCCCCCCCCCC1CCC(COC(=O)CCCCC[n+]2ccsc2)O1 (mixture of isomers)
test-target: platelet aggregation induced by PAF
data-value: 3.1

compound: CCCCCCCCCCCCCCCCOCC1CCC(COC(=O)N(Cc2cccc[n+]2CC)C(C)=O)O1 (mixture of isomers)
test-target: platelet aggregation induced by PAF
data-value: 0.074

compound: CCCCCCCCCCCCCCCC1CCC(COCCCCCC[n+]2ccsc2)O1 (mixture of isomers)
test-target: platelet aggregation induced by PAF
data-value: 1.3

compound: CCCCCCCCCCCCCCCCCC1CCC(COC(=O)N(Cc2cccc[n+]2CC)C(=O)OCC)O1 (mixture of isomers)
test-target: platelet aggregation induced by PAF
data-value: 0.13

compound: CCCCCCCCCCCCCCCCCC1CCC(COC(=O)N(Cc2cccc[n+]2C)C(C)=O)O1 (mixture of isomers)
test-target: platelet aggregation induced by PAF
data-value: 1.1

###

Tested on: platelet aggregation induced by PAF
protocol-details: Test 1: Inhibition of platelet aggregation induced by PAF
Type: cell-based
setup-conditions: Oryctolagus cuniculus; rabbit platelet rich plasma; aggregation induced by PAF (C₁₈) 16 nM final; Born nephelometric technique; read-out: IC₅₀
readout-name: IC50 (nM)

compound: CCCCCCCCCCCCCCCC1CCC(COC(=O)N(Cc2cccc[n+]2CC)C(C)=O)O1 (mixture of isomers) [Compound 11]
data-value: 95
--
compound: CCCCCCCCCCCCCCCCCNC(=O)OCC1CCC(COC(=O)N(Cc2cccc[n+]2CC)C(C)=O)O1 (mixture of isomers) [Compound 16]
data-value: 40
--
compound: CCCCCCCCCCCCCCCNC(=O)OCC1CCC(COC(=O)N(Cc2cccc[n+]2CC)C(C)=O)O1 (mixture of isomers) [Compound 19]
data-value: 54
